System: T cell avatar K_4_161
Assay: T cell avatar NanoLuciferase response to synthetic peptide
Format: cell-based, human
Details: synthetic peptide titration, autologous EBV B cells, NanoLuciferase, triplicate
Procedure: Briefly, we used CRISPR/Cas9 to generate a variant of the human T cell line Jurkat that was deficient in TRAC, TRBC, and CD4. […] Compensation settings were determined using single-color controls. […] The HIP super-pool bacteria were cultured from frozen glycerol stock in LB media with antibiotics at 37 °C with agitation 210 rpm. […] After 22–24 h of coculture, the NanoLuciferase activity was measured using the Nano-Glo Luciferase assay (Promega) according to the manufacturer's instructions. […]
value-type: EC50

What does the record list as EC50 for REAEDLQVG-VCGERGF [HIP-K, hybrid insulin peptide formed by fusion of proinsulin fragments] ? > 20 µM
